- Test system: TAOK2 (human) (UniProt Q9UL54)
- Sequence (Q9UL54 whole entry, looked up): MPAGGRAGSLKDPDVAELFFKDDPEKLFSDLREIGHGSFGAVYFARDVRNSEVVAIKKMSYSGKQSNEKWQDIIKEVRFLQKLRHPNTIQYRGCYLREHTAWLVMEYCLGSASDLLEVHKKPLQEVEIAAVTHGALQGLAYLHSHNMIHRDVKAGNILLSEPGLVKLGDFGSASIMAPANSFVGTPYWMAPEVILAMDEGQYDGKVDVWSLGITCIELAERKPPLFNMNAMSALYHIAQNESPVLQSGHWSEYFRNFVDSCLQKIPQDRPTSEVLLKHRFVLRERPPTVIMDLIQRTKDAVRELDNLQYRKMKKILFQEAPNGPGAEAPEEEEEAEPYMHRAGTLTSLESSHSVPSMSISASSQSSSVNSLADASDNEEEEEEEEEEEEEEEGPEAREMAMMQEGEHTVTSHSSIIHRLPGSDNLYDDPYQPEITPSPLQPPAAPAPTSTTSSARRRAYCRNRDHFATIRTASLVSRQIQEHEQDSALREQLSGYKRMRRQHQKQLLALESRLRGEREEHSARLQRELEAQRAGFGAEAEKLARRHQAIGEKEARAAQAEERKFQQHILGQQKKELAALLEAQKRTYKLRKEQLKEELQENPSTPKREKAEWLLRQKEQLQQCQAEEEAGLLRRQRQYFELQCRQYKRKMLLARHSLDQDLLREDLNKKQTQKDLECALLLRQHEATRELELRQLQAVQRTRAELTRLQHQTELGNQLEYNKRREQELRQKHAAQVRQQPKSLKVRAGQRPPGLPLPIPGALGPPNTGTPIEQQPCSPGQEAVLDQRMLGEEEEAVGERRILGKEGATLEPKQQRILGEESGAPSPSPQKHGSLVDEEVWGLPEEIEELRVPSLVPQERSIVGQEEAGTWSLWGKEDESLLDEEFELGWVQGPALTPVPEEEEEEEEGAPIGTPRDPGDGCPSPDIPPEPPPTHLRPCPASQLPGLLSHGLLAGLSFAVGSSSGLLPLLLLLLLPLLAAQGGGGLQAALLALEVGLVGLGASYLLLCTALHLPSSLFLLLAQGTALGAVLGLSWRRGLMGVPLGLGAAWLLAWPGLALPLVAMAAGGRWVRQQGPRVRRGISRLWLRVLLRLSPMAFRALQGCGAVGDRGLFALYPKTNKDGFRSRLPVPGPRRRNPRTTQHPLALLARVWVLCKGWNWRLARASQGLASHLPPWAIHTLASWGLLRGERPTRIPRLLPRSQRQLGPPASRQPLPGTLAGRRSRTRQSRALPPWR
- Test summary: radiometric filter-binding kinase assay, Kinase HotSpot
- Experimental setup: compound 0.5 µM; ATP 10 µM
Endpoint label: residual activity (%)

{"Compound": "COc1ccc(OC)c2c(=S)c3ccccc3[nH]c12", "Test system": "TAOK2 (human) (UniProt Q9UL54)", "Endpoint label": "residual activity", "Measured value": 100}
{"Compound": "Cn1nc2c3c(cccc31)C(=O)c1ccccc1-2", "Test system": "TAOK2 (human) (UniProt Q9UL54)", "Endpoint label": "residual activity", "Measured value": 104}
{"Compound": "O=C1NC(=O)C(c2c[nH]c3ccccc23)=C1c1c[nH]c2ccccc12", "Test system": "TAOK2 (human) (UniProt Q9UL54)", "Endpoint label": "residual activity", "Measured value": 102}
{"Compound": "Cn1sc(=O)n(Cc2ccccc2)c1=O", "Test system": "TAOK2 (human) (UniProt Q9UL54)", "Endpoint label": "residual activity", "Measured value": 91}

###

As shown below, each of these compounds has a reported residual activity value.
- Test system: EPHB3 (human) (UniProt P54753)
- Sequence (P54753 whole entry, looked up): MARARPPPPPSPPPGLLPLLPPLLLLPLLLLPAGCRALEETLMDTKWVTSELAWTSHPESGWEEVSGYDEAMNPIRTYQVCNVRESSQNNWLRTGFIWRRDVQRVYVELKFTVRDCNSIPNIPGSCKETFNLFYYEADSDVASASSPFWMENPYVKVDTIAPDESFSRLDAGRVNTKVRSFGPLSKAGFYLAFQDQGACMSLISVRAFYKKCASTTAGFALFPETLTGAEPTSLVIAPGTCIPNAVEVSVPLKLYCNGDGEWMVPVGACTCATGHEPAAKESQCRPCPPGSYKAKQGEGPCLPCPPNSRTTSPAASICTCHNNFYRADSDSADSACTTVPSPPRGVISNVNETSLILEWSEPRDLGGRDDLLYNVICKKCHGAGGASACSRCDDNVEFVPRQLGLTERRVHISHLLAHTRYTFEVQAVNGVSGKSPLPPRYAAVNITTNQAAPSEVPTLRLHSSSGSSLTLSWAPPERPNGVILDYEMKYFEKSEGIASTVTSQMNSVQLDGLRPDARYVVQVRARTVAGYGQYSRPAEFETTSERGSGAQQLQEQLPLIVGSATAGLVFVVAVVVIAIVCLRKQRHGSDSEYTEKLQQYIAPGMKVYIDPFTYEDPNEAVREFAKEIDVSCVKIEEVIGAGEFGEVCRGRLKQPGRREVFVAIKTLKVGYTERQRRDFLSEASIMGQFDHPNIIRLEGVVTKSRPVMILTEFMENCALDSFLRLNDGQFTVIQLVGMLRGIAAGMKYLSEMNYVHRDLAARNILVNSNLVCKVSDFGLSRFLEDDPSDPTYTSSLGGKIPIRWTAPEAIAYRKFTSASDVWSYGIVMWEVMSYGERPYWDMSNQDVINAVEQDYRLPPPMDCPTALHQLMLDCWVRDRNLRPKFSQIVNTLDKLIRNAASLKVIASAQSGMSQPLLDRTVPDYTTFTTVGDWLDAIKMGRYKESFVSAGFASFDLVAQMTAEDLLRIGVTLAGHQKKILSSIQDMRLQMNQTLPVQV
- Test summary: radiometric filter-binding kinase assay, Kinase HotSpot
- Experimental setup: compound 0.5 µM; ATP 10 µM

{"Compound": "COc1ccc(OC)c2c(=S)c3ccccc3[nH]c12", "residual activity / %": 91}
{"Compound": "COc1cc2ncnc(N3CCN(C(=O)Nc4ccc(Oc5ccccc5)cc4)CC3)c2cc1OC", "residual activity / %": 89.6}
{"Compound": "O=C(CCCc1ccc(-c2ccccc2F)cc1)Nc1ccc(O)cc1", "residual activity / %": 96.5}
{"Compound": "CCN(CC)CCCCN1c2ccccc2Oc2ccc(Cl)cc21", "residual activity / %": 112}
{"Compound": "O=C(Nc1cccc(Nc2cc(Nc3cccc(C(F)(F)F)c3)ncn2)c1)C1CC1", "residual activity / %": 87.9}
{"Compound": "Oc1ccc(Nc2nc(-c3ccc(Cl)cc3)cs2)cc1", "residual activity / %": 103}
{"Compound": "CN([C@@H](Cc1ccc(OS(=O)(=O)c2cccc3cnccc23)cc1)C(=O)N1CCN(c2ccccc2)CC1)S(=O)(=O)c1cccc2cnccc12", "residual activity / %": 97}
{"Compound": "COc1ccc(CNC(=O)Nc2ncc([N+](=O)[O-])s2)cc1", "residual activity / %": 101}
{"Compound": "CCn1cnc2c(Nc3cccc(Cl)c3)nc(N[C@@H]3CCCC[C@@H]3N)nc21", "residual activity / %": 92.6}
{"Compound": "O=C1NC(=O)/C(=C\\c2ccc3nccnc3c2)S1", "residual activity / %": 94.5}
{"Compound": "O=C1Nc2ccccc2/C1=C1\\Nc2ccccc2\\C1=N/O", "residual activity / %": 92.3}
{"Compound": "Cn1sc(=O)n(Cc2ccccc2)c1=O", "residual activity / %": 91.3}
{"Compound": "CN(C)C[C@H]1CCn2c(c(C3=C(c4cn(C)c5ccccc45)C(=O)NC3=O)c3ccccc32)C1", "residual activity / %": 105}
{"Compound": "Cn1nc2c3c(cccc31)C(=O)c1ccccc1-2", "residual activity / %": 85.5}
{"Compound": "O=C1NC(=O)C(c2cn(CCCO)c3ncccc23)=C1c1cnccn1", "residual activity / %": 86.6}
